Notes on IC50 obtained with UniProt:Q13547.
Sequence (Q13547 whole entry): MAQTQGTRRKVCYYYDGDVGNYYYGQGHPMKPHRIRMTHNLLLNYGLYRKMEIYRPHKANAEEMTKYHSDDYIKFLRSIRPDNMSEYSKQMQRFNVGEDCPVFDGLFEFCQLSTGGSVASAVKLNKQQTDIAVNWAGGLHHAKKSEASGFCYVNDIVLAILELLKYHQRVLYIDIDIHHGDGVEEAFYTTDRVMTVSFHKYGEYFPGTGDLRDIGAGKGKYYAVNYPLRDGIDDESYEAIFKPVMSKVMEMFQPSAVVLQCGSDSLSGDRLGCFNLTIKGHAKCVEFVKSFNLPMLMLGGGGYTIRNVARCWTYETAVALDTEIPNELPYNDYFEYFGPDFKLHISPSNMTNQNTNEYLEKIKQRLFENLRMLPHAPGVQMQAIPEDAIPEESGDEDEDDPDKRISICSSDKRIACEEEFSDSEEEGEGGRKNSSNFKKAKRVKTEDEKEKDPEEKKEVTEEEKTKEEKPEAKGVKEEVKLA
Hi! Could you send only the number? It should be in µM, unit omitted.

Take a look at these entries with their results.
COMPOUND	TARGET OF ASSAY	OBSERVED
COc1ccc(-c2nc3cc(/C=C/C(=O)NO)ccc3n2CC(O)CO)cc1 (stereo not drawn)	UniProt:Q13547	1.38
O=C(/C=C/c1ccc2c(c1)nc(C1CCCCC1)n2CCCO)NO	UniProt:Q13547	3.24

# next compound below
Requested field: IC50. Item: COc1cc(-c2nc3cc(/C=C/C(=O)NO)ccc3n2C)ccc1OCc1ccccc1
1.37
